- assay method text: gradient 5% acetonitrile 3 min, to 50% in 2 min, to 85% in 15 min, held 3 min, 100 µL/min
- test settings: column: Zorbax Extend-C18 2.1 x 50 mm; eluents: water / acetonitrile, 0.1% formic acid
readout kind: RP-LC retention time (s)

compound	RP-LC retention time, s
COc1ccc(N2CCN(c3ncc4c(n3)CCN(Cc3ccccc3Cl)C4)CC2)cc1	667
CCn1c(=O)sc2cc(S(=O)(=O)N3CCC(C(=O)NCc4ccccc4OC)CC3)ccc21	881

[P] Cc1cccc(OCC(=O)N2CCN(c3cc(C)n4c(C)nnc4n3)CC2)c1
[Q] c1ccc(-c2nc3cc(-c4noc(C5CC5)n4)ccc3o2)cc1
Just curious, which one has the larger RP-LC retention time reading, P or Q ? Please identify the chosen entry by its label.
Q
